Assignment: determine reported Percentage inhibition of ligand binding, Adrenergic α2B (30 nM) for the given molecules.
system_name: Human adrenergic α2B receptor (Homo sapiens)
Sequence (P18089 whole entry): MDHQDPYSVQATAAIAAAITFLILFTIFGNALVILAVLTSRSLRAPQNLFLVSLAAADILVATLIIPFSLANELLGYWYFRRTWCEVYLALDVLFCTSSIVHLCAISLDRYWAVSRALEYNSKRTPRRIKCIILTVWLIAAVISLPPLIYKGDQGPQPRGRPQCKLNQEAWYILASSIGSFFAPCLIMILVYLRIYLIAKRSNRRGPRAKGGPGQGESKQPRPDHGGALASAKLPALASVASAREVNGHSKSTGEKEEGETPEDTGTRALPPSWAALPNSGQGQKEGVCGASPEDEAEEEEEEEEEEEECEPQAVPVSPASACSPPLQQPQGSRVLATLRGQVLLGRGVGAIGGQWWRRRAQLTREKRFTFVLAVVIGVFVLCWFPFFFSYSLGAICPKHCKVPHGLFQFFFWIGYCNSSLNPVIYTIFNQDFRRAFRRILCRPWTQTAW
test_protocol: Radioligand binding, adrenergic α2B (Protocol Group B)
Set-up: purchased Milipore (Millipore)
condition_info: 30 nM compound; Protocol Group B; 0.03 µM
Answers are plain numbers, in %.

Consider the worked cases shown below.
{"molecule": "OC(Cn1c2c(c3cc(F)cc(F)c31)C1CCCN1CC2)c1ccncc1 (single isomer, unassigned) [144c]", "system_name": "Human adrenergic α2B receptor (Homo sapiens)", "observed_value": "−12"}
{"molecule": "Cc1cc(C)c2c(c1)c1c(n2CC(C)(O)c2ccncc2)CCN2CCCC12 (stereo not shown) [compound 19]", "system_name": "Human adrenergic α2B receptor (Homo sapiens)", "observed_value": 95}
{"molecule": "Cc1cc(F)c2c(c1)c1c(n2CC(C)(O)c2cccnc2)CC2CCCN2C1 (single isomer, unassigned) [61b]", "system_name": "Human adrenergic α2B receptor (Homo sapiens)", "observed_value": 3}

Let us examine a further case.
// fetch Human adrenergic α2B receptor (Homo sapiens) Percentage inhibition of ligand binding, Adrenergic α2B (30 nM) for Cc1cc(F)c2c(c1)c1c(n2CC(O)c2ccncc2)CCN2CCCC12 (single isomer, unassigned) [137d]
24

The values you see were collected from patent US20150315188A1.
